Species on record: Homo sapiens
Assay explanation: Resistance factor (IC50 in the resistant cell line/IC50 in the parent cell line)
Format: functional
Experimental conditions: Homo sapiens
Endpoint name: RF
Respond numerically, and do not add a unit to the figure.

O=C1c2c(O)ccc(O)c2C(=O)c2c(NCCCN(CCO)CCO)ccc(NCCCN(CCO)CCO)c21 = 1.1
CN(C)CCNc1ccc(NCCN(CCO)CCO)c2c1C(=O)c1c(O)ccc(O)c1C2=O = 1
CN(CCCl)CCNc1ccc(NCCN(C)CCCl)c2c1C(=O)c1c(O)ccc(O)c1C2=O = 2.7
O=C1c2c(O)ccc(O)c2C(=O)c2c(NCCN(CCO)CCO)ccc(NCCN(CCO)CCO)c21 = 1.4
O=C1c2ccccc2C(=O)c2c(NCCCN(CCCl)CCCl)cccc21 = 1.6
O=C1c2ccccc2C(=O)c2c(NCCN(CCCl)CCCl)ccc(NCCN(CCCl)CCCl)c21 = 1.9
O=C1c2ccccc2C(=O)c2c(NCCN(CCO)CCO)ccc(NCCN(CCO)CCO)c21 = 1.1
CN(C)CCNc1ccc(NCCN(CCCl)CCCl)c2c1C(=O)c1c(O)ccc(O)c1C2=O = 1.2

Reported RF of CN(CCO)CCNc1ccc(NCCN(C)CCO)c2c1C(=O)c1ccccc1C2=O : 0.8

Reported RF of CN(CCCl)CCNc1cccc2c1C(=O)c1ccccc1C2=O : 1.7

Reported RF of CN(CCO)CCNc1cccc2c1C(=O)c1ccccc1C2=O : 1.2

Reported RF of CN(CCCl)CCCNc1cccc2c1C(=O)c1ccccc1C2=O : 1

Reported RF of CN(CCO)CCCNc1cccc2c1C(=O)c1ccccc1C2=O : 1.1

Reported RF of CN(CCCl)CCNc1ccc(NCCN(C)CCCl)c2c1C(=O)c1ccccc1C2=O : 2.6

Reported RF of CN(C)CCNc1ccc(NCCN(C)CCO)c2c1C(=O)c1c(O)ccc(O)c1C2=O : 1

Reported RF of O=C1c2ccccc2C(=O)c2c(NCCCN(CCO)CCO)ccc(NCCCN(CCO)CCO)c21 : 1

Reported RF of O=C1c2c(O)ccc(O)c2C(=O)c2c(NCCCN(CCCl)CCCl)ccc(NCCCN(CCCl)CCCl)c21 : 1.4

Reported RF of O=C1c2c(O)ccc(O)c2C(=O)c2c(NCCN(CCCl)CCCl)ccc(NCCN(CCCl)CCCl)c21 : 1.4

----------
Species: Homo sapiens
Assay explanation: Resistance factor (IC50 in the resistant cell line/IC50 in the parent cell line)
Type: functional
Reported RF values are given for each entry in this list.
Respond numerically, and do not add a unit to the figure.

O=C1c2ccccc2C(=O)c2c(NCCCN(CCO)CCO)ccc(NCCCN(CCO)CCO)c21 = 1.1
O=C1c2c(O)ccc(O)c2C(=O)c2c(NCCN(CCCl)CCCl)ccc(NCCN(CCCl)CCCl)c21 = 2
CN(CCCl)CCNc1ccc(NCCN(C)CCCl)c2c1C(=O)c1ccccc1C2=O = 1.3
O=C1c2ccccc2C(=O)c2c(NCCN(CCCl)CCCl)ccc(NCCN(CCCl)CCCl)c21 = 1.2

Reported RF of O=C1c2ccccc2C(=O)c2c(NCCCN(CCCl)CCCl)ccc(NCCCN(CCCl)CCCl)c21 : 3.7

Reported RF of CN(CCO)CCNc1cccc2c1C(=O)c1ccccc1C2=O : 1

Reported RF of CN(CCO)CCNc1ccc(NCCN(C)CCO)c2c1C(=O)c1ccccc1C2=O : 1.2

Reported RF of CN(CCCl)CCNc1cccc2c1C(=O)c1ccccc1C2=O : 1.2

Reported RF of O=C1c2ccccc2C(=O)c2c(NCCN(CCO)CCO)ccc(NCCN(CCO)CCO)c21 : 0.8

Reported RF of O=C1c2ccccc2C(=O)c2c(NCCCN(CCCl)CCCl)cccc21 : 2.9

Reported RF of CN(C)CCNc1ccc(NCCN(C)CCO)c2c1C(=O)c1c(O)ccc(O)c1C2=O : 1.9

Reported RF of CN(CCCl)CCNc1ccc(NCCN(C)CCCl)c2c1C(=O)c1c(O)ccc(O)c1C2=O : 1.9

Reported RF of CN(CCO)CCCNc1cccc2c1C(=O)c1ccccc1C2=O : 1

Reported RF of CN(C)CCNc1ccc(NCCN(CCO)CCO)c2c1C(=O)c1c(O)ccc(O)c1C2=O : 1.6

Reported RF of O=C1c2c(O)ccc(O)c2C(=O)c2c(NCCN(CCO)CCO)ccc(NCCN(CCO)CCO)c21 : 1.2

Reported RF of O=C(O)CCCc1ccc(N(CCCl)CCCl)cc1 : 2.4

Reported RF of CN(C)CCNc1ccc(NCCN(CCCl)CCCl)c2c1C(=O)c1c(O)ccc(O)c1C2=O : 1

Reported RF of O=C1c2c(O)ccc(O)c2C(=O)c2c(NCCCN(CCO)CCO)ccc(NCCCN(CCO)CCO)c21 : 1.3

Reported RF of CN(CCO)CCNc1ccc(NCCN(C)CCO)c2c1C(=O)c1c(O)ccc(O)c1C2=O : 2.6

Reported RF of CN(CCCl)CCCNc1cccc2c1C(=O)c1ccccc1C2=O : 0.9
